# assay-system: T1, soluble KDR extracellular domain (ECD) (Calbiochem) (human, UniProt P35968 20-764)
# T1 construct: extracellular domain; Bought protein; also called KDR-ECD; VEGF Receptor 2 D1-7, Cat. #676490
# T1 sequence (P35968 20-764): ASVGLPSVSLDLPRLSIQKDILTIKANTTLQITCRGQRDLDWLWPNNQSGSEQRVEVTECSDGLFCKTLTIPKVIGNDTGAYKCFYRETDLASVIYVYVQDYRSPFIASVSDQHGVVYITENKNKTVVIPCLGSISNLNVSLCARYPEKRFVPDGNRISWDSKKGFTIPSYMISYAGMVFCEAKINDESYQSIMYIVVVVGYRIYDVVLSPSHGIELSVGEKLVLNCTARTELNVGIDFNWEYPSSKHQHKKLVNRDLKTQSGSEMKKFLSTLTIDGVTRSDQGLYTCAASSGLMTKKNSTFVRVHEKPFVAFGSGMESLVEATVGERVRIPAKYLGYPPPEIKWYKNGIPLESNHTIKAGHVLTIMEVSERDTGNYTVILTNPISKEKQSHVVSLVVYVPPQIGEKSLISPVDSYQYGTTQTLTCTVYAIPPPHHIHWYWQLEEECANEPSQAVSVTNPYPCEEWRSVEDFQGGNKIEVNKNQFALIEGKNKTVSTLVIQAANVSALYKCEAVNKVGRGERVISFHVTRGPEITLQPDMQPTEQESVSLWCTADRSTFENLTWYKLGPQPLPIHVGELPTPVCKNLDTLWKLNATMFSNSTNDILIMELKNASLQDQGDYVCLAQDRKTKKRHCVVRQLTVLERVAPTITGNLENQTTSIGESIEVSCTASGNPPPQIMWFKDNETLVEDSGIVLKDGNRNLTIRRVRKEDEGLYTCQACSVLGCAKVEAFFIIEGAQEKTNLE
# protocol-summary: High Antigen ELISA, KDR coat 500 ng/mL, supernatant 1:225
Recorded ELISA reading for the following binders
measured-quantity: ELISA reading

[
  {
    "binder": "29H3 (antibody, V domains shown, Fully human mAb from XenoMouse hybridoma, tested as hybridoma supernatant) VH: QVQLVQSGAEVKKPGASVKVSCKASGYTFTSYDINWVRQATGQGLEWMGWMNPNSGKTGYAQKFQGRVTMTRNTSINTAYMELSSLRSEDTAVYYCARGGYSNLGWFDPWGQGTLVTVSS VL: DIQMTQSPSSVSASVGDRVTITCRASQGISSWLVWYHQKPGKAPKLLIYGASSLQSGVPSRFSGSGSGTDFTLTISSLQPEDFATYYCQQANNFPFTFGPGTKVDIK",
    "value-observed": 4.29
  },
  {
    "binder": "33E1 (antibody, V domains shown, Fully human mAb from XenoMouse hybridoma, tested as hybridoma supernatant) VH: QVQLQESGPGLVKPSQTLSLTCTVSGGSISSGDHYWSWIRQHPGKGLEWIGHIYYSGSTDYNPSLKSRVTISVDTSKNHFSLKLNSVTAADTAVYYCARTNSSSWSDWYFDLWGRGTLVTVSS VL: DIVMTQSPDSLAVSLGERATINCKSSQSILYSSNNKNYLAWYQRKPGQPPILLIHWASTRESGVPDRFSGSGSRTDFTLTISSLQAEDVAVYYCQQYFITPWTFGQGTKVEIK",
    "value-observed": 4.07
  },
  {
    "binder": "24B3 (antibody, V domains shown, Fully human mAb from XenoMouse hybridoma, tested as hybridoma supernatant) VH: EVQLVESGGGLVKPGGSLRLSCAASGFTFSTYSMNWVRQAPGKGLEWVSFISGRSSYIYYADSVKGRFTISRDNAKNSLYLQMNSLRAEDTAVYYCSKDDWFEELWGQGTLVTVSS VL: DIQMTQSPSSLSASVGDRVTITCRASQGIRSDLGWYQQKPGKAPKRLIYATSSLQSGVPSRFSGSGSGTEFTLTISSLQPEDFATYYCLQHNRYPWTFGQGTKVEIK",
    "value-observed": 1.16
  }
]
